melting temperature listing for selected sequences.
# Tested on: HeLa Kyoto
# Procedure summary: melting temperature (median over replicates), in situ; higher = more thermally stable
# Conditions used: cell cycle stage: G1/S
The reply should consist of the numeric value with the unit placed after it.

Reference set (3 entries):
MGSSKKVTLSVLSREQSEGVGARVRRSIGRPELKNLDPFLLFDEFKGGRPGGFPDHPHRGFETVSYLLEGGSMAHEDFCGHTGKMNPGDLQWMTAGRGILHAEMPCSEEPAHGLQLWVNLRSSEKMVEPQYQELKSEEIPKPSKDGVTVAVISGEALGIKSKVYTRTPTLYLDFKLDPGAKHSQPIPKGWTSFIYTISGDVYIGPDDAQQKIEPHHTAVLGEGDSVQVENKDPKRSHFVLIAGEPLREPVIQHGPFVMNTNEEISQAILDFRNAKNGFERAKTWKSKIGN [PIR]: 51.8 °C
MADDLGDEWWENQPTGAGSSPEASDGEGEGDTEVMQQETVPVPVPSEKTKQPKECFLIQPKERKENTTKTRKRRKKKITDVLAKSEPKPGLPEDLQKLMKDYYSSRRLVIELEELNLPDSCFLKANDLTHSLSSYLKEICPKWVKLRKNHSEKKSVLMLIICSSAVRALELIRSMTAFRGDGKVIKLFAKHIKVQAQVKLLEKRVVHLGVGTPGRIKELVKQGGLNLSPLKFLVFDWNWRDQKLRRMMDIPEIRKEVFELLEMGVLSLCKSESLKLGLF [CMSS1]: 49.9 °C
MALTVDVAGPAPWGFRITGGRDFHTPIMVTKVAERGKAKDADLRPGDIIVAINGESAEGMLHAEAQSKIRQSPSPLRLQLDRSQATSPGQTNGDSSLEVLATRFQGSVRTYTESQSSLRSSYSSPTSLSPRAGSPFSPPPSSSSLTGEAAISRSFQSLACSPGLPAADRLSYSGRPGSRQAGLGRAGDSAVLVLPPSPGPRSSRPSMDSEGGSLLLDEDSEVFKMLQENREGRAAPRQSSSFRLLQEALEAEERGGTPAFLPSSLSPQSSLPASRALATPPKLHTCEKCSTSIANQAVRIQEGRYRHPGCYTCADCGLNLKMRGHFWVGDELYCEKHARQRYSAPATLSSRA [PDLIM2]: 55.6 °C

Please examine the following record next.
Incoming: For MMKLKSNQTRTYDGDGYKKRAACLCFRSESEEEVLLVSSSRHPDRWIVPGGGMEPEEEPSVAAVREVCEEAGVKGTLGRLVGIFENQERKHRTYVYVLIVTEVLEDWEDSVNIGRKREWFKIEDAIKVLQYHKPVQASYFETLRQGYSANNGTPVVATTYSVSAQSSMSGIR [NUDT3] , what is its reported melting temperature?
Outgoing: 53.4 °C

* * *

# Tested on: HeLa Kyoto
# Procedure summary: thermal stability score vs G1/S (z-score of summed log2 fold changes over temperatures); higher = more thermally stable than in G1/S
# Conditions used: cell cycle stage: early G1 (4.5 h after nocodazole release)
The threshold is inclusive: thermal stability score of exactly -0.7 counts as met; values below receive not met.

Look over these answered cases.
MAAPSGGWNGVGASLWAALLLGAVALRPAEAVSEPTTVAFDVRPGGVVHSFSHNVGPGDKYTCMFTYASQGGTNEQWQMSLGTSEDHQHFTCTIWRPQGKSYLYFTQFKAEVRGAEIEYAMAYSKAAFERESDVPLKTEEFEVTKTAVAHRPGAFKAELSKLVIVAKASRTEL [MYDGF]: met
MELGSCLEGGREAAEEEGEPEVKKRRLLCVEFASVASCDAAVAQCFLAENDWEMERALNSYFEPPVEESALERRPETISEPKTYVDLTNEETTDSTTSKISPSEDTQQENGSMFSLITWNIDGLDLNNLSERARGVCSYLALYSPDVIFLQEVIPPYYSYLKKRSSNYEIITGHEEGYFTAIMLKKSRVKLKSQEIIPFPSTKMMRNLLCVHVNVSGNELCLMTSHLESTRGHAAERMNQLKMVLKKMQEAPESATVIFAGDTNLRDREVTRCGGLPNNIVDVWEFLGKPKHCQYTWDTQMNSNLGITAACKLRFDRIFFRAAAEEGHIIPRSLDLLGLEKLDCGRFPSDHWGLLCNLDIIL [TDP2]: not met
MDSAGQDINLNSPNKGLLSDSMTDVPVDTGVAARTPAVEGLTEAEEEELRAELTKVEEEIVTLRQVLAAKERHCGELKRRLGLSTLGELKQNLSRSWHDVQVSSAYVKTSEKLGEWNEKVTQSDLYKKTQETLSQAGQKTSAALSTVGSAISRKLGDMRNSATFKSFEDRVGTIKSKVVGDRENGSDNLPSSAGSGDKPLSDPAPF [TPD52L2]: not met

Incoming: Could you verify whether the entry MAKVSELYDVTWEEMRDKMRKWREENSRNSEQIVEVGEELINEYASKLGDDIWIIYEQVMIAALDYGRDDLALFCLQELRRQFPGSHRVKRLTGMRFEAMERYDDAIQLYDRILQEDPTNTAARKRKIAIRKAQGKNVEAIRELNEYLEQFVGDQEAWHELAELYINEHDYAKAAFCLEELMMTNPHNHLYCQQYAEVKYTQGGLENLELSRKYFAQALKLNNRNMRALFGLYMSASHIASNPKASAKTKKDNMKYASWAASQINRAYQFAGRSKKETKYSLKAVEDMLETLQITQS [EMC2] shows thermal stability score of no less than -0.7?
Outgoing: not met

Incoming: Could you verify whether the entry MCNTPTYCDLGKAAKDVFNKGYGFGMVKIDLKTKSCSGVEFSTSGHAYTDTGKASGNLETKYKVCNYGLTFTQKWNTDNTLGTEISWENKLAEGLKLTLDTIFVPNTGKKSGKLKASYKRDCFSVGSNVDIDFSGPTIYGWAVLAFEGWLAGYQMSFDTAKSKLSQNNFALGYKAADFQLHTHVNDGTEFGGSIYQKVNEKIETSINLAWTAGSNNTRFGIAAKYMLDCRTSLSAKVNNASLIGLGYTQTLRPGVKLTLSALIDGKNFSAGGHKVGLGFELEA [VDAC3] shows thermal stability score of no less than -0.7?
Outgoing: not met
